target_or_test_system: Dll (DllΔN) (Drosophila melanogaster, UniProt P20009 124-327)
Sequence (P20009 124-327, stated change not applied): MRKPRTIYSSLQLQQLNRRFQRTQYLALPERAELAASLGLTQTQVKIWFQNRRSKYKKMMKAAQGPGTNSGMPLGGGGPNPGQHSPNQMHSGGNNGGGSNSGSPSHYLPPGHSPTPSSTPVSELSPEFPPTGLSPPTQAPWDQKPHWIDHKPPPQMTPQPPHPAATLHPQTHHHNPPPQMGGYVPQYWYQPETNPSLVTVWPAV
method: EMSA; 1:1 mix of dialysis buffer (20 mM HEPES pH 8.0, 200 mM NaCl, 10% glycerol, 2 mM MgCl2, 0.05% Tween 20) and DNA mix; final about 150 mM NaCl, 10 mM Tris pH 7.5
setup_conditions: tags: His6 (kept); label: Cy5 on the primer strand
Some binders, each annotated with its measured Kd.

Please review the entries below; each comes with its answer.
[[record]]
binder = "probe 3 (dsDNA) DNA 1: GTTCAGAGTTCTACAGTCCGACCTGGTTTATTTGGTCCAGGACTCGGACCTGGACTAGG DNA 2: CCTAGTCCAGGTCCGAGTCCTGGACCAAATAAACCAGGTCGGACTGTAGAACTCTGAAC"
parameter_measured = "Kd"
result = "~2640 nM"

[[record]]
binder = "probe 2 (dsDNA) DNA 1: GTTCAGAGTTCTACAGTCCGACCTGGTTTGATTGGTCCAGGACTCGGACCTGGACTAGG DNA 2: CCTAGTCCAGGTCCGAGTCCTGGACCAATCAAACCAGGTCGGACTGTAGAACTCTGAAC"
parameter_measured = "Kd"
result = "92.7 nM"

[[record]]
binder = "probe 4 (dsDNA) DNA 1: GTTCAGAGTTCTACAGTCCGACCTGGTTTAATGGGTCCAGGACTCGGACCTGGACTAGG DNA 2: CCTAGTCCAGGTCCGAGTCCTGGACCCATTAAACCAGGTCGGACTGTAGAACTCTGAAC"
parameter_measured = "Kd"
result = "40.8 nM"


Ask | Given probe 1 (dsDNA) DNA 1: GTTCAGAGTTCTACAGTCCGACCTGGTTTAATTGGTCCAGGACTCGGACCTGGACTAGG DNA 2: CCTAGTCCAGGTCCGAGTCCTGGACCAATTAAACCAGGTCGGACTGTAGAACTCTGAAC , state its recorded Kd.
Reply | 5.2 nM
